Data origin, for the record: paper PMC9863109

Test: in vivo
Settings: both, ICR, mouse, po
property.name: bioavailability (%)
Answer with a number only, understood to be in %.

input: GET /values?readout=bioavailability&item= O=C(NN1C(=O)C2C3C=CC(C4CC34)C2C1=O)c1ccc(C(F)(F)F)cc1 (stereo not shown)
output: 12.1

* * *

Experiment: in vivo
Conditions: both, ICR, mouse, iv, Cmax
property.name: Cmax (ng/mL)
Give just the numeric value; ng/mL need not be written.

input: Which Cmax value is on record for O=C(NN1C(=O)C2C3C=CC(C4CC34)C2C1=O)c1ccc(C(F)(F)F)cc1 (stereo not shown) [ST-246] ?
output: 13200
